- Test system: Escherichia coli TOP10
- protocol details: shrunken log2 fold change of peptide-encoding DNA abundance (4.5 h post-induction vs induction); higher = less antimicrobial activity (less host growth inhibition)
- condition label: time post-induction: 4.5 h; library: site-saturation at positions 5, 18, 19, 20
Assign Criterion met to entries whose shrunken log2 fold change meets or exceeds -0.1; assign Criterion not met to the rest.

Exercise: Item RRIRTRPPRLPRPRPRPIPDPRP with shrunken log2 fold change of -0.1 or above?
Key: Criterion not met

Exercise: Check the entry RRIRRRPPRLPRPRPRPFCYPRP : does shrunken log2 fold change equal or exceed -0.1?
Key: Criterion met

Exercise: Check if shrunken log2 fold change >= -0.1 (inclusive). Item: RRIRWRPPRLPRPRPRPWHGPRP
Key: Criterion not met

Exercise: Tell me whether shrunken log2 fold change is at least -0.1 here: RRIRHRPPRLPRPRPRPLVKPRP
Key: Criterion not met

Exercise: Can RRIRYRPPRLPRPRPRPYGPPRP be said to have shrunken log2 fold change at or above -0.1?
Key: Criterion not met

Exercise: Check this sequence for shrunken log2 fold change at or above -0.1: RRIRARPPRLPRPRPRPIKVPRP
Key: Criterion not met

Exercise: Form field: shrunken log2 fold change at least -0.1? Entry: RRIRYRPPRLPRPRPRPLLDPRP
Key: Criterion not met

Exercise: Say whether RRIRGRPPRLPRPRPRPFLYPRP shows shrunken log2 fold change of -0.1 or more.
Key: Criterion not met

Exercise: Test whether the sequence RRIRYRPPRLPRPRPRPSANPRP records shrunken log2 fold change of -0.1 or higher.
Key: Criterion met

Exercise: // inclusive: shrunken log2 fold change at least -0.1? input: RRIRTRPPRLPRPRPRPGGEPRP
Key: Criterion met

Exercise: Could you tell me if the measured shrunken log2 fold change of RRIRMRPPRLPRPRPRPMCAPRP reaches -0.1 or more?
Key: Criterion met

Exercise: Can RRIRTRPPRLPRPRPRPYRIPRP be said to have shrunken log2 fold change at or above -0.1?
Key: Criterion met

Exercise: Is shrunken log2 fold change for RRIRGRPPRLPRPRPRPFYIPRP at or above -0.1?
Key: Criterion met

Exercise: Could you please find out whether RRIRMRPPRLPRPRPRPGGNPRP has shrunken log2 fold change that meets -0.1 or exceeds it?
Key: Criterion met

Exercise: Has RRIRPRPPRLPRPRPRPLNQPRP a recorded shrunken log2 fold change greater than or equal to -0.1?
Key: Criterion not met

Exercise: Please indicate if the recorded shrunken log2 fold change for RRIRWRPPRLPRPRPRPNTMPRP meets or exceeds -0.1.
Key: Criterion not met

Exercise: Decide: is the reported value of shrunken log2 fold change for RRIRNRPPRLPRPRPRPLIRPRP equal to or greater than -0.1?
Key: Criterion met

Exercise: Record RRIRQRPPRLPRPRPRPRPPPRP ; criterion: shrunken log2 fold change no lower than -0.1. Met?
Key: Criterion met

Exercise: Please indicate if the recorded shrunken log2 fold change for RRIRLRPPRLPRPRPRPVQMPRP meets or exceeds -0.1.
Key: Criterion met

Exercise: Evaluate RRIRKRPPRLPRPRPRPIMNPRP : shrunken log2 fold change at minimum -0.1?
Key: Criterion not met

----------
- Tested on: Escherichia coli TOP10
- protocol details: shrunken log2 fold change of peptide-encoding DNA abundance (4.5 h post-induction vs induction); higher = less antimicrobial activity (less host growth inhibition)
- condition label: time post-induction: 4.5 h; library: site-saturation at positions 5, 18, 19, 20
Tag: fulfilled if measured shrunken log2 fold change is not below 0.2, not fulfilled if it is.

Here are 4 sequences together with their reported answers.
item sequence	group
RRIRYRPPRLPRPRPRPYANPRP	not fulfilled
RRIRHRPPRLPRPRPRPFGWPRP	not fulfilled
RRIRQRPPRLPRPRPRPPHAPRP	fulfilled
RRIRRRPPRLPRPRPRPRMHPRP	fulfilled

Could you now look at the following sequence, please?
Exercise: Please tell me: is the sequence RRIRHRPPRLPRPRPRPMAVPRP at or over 0.2 in terms of shrunken log2 fold change?
Key: not fulfilled

----------
Overview of reported shrunken log2 fold change across a group of sequences:
- Test system: Escherichia coli TOP10
- protocol details: shrunken log2 fold change of peptide-encoding DNA abundance (4.5 h post-induction vs induction); higher = less antimicrobial activity (less host growth inhibition)
- condition label: time post-induction: 4.5 h; library: site-saturation at positions 5, 18, 19, 20

item sequence	shrunken log2 fold change
RRIRHRPPRLPRPRPRPQGCPRP	-0.0592

Exercise: Please tell me: shrunken log2 fold change of RRIRDRPPRLPRPRPRPNFHPRP , system Escherichia coli TOP10?
Key: -0.0585

Exercise: Fill in the recorded shrunken log2 fold change for this sequence, with Escherichia coli TOP10 as test system: RRIRERPPRLPRPRPRPSIIPRP
Key: -0.188

Exercise: Which measured shrunken log2 fold change belongs to RRIRGRPPRLPRPRPRPCGQPRP , tested on Escherichia coli TOP10?
Key: 0.142

Exercise: Recall the recorded shrunken log2 fold change for RRIRARPPRLPRPRPRPRCDPRP with Escherichia coli TOP10 and state it.
Key: 0.324

----------
- Test system: Escherichia coli TOP10
- protocol details: shrunken log2 fold change of peptide-encoding DNA abundance (4.5 h post-induction vs induction); higher = less antimicrobial activity (less host growth inhibition)
- condition label: time post-induction: 4.5 h; library: site-saturation at positions 5, 18, 19, 20
Catalogue of shrunken log2 fold change values
I only need the number, thanks.

item sequence	numeric result
RRIRLRPPRLPRPRPRPNECPRP	-0.0751

Exercise: Request: shrunken log2 fold change, test system Escherichia coli TOP10, entry RRIRSRPPRLPRPRPRPDKTPRP
Key: 0.178

Exercise: Identify the measured shrunken log2 fold change of RRIRRRPPRLPRPRPRPYYSPRP for Escherichia coli TOP10.
Key: -0.532

Exercise: Checklist item: shrunken log2 fold change tested on Escherichia coli TOP10, entry RRIRIRPPRLPRPRPRPWLYPRP , value?
Key: -0.0424

Exercise: // lookup shrunken log2 fold change | system=Escherichia coli TOP10 | key= RRIRKRPPRLPRPRPRPFTGPRP
Key: 0.0735

Exercise: Tell me reported shrunken log2 fold change for RRIRCRPPRLPRPRPRPQRRPRP , tested with Escherichia coli TOP10.
Key: -0.023

Exercise: Escherichia coli TOP10 / shrunken log2 fold change / RRIRPRPPRLPRPRPRPRPGPRP : value?
Key: 0.555

----------
Here, each record is paired with measured shrunken log2 fold change data.
- Tested on: Escherichia coli TOP10
- protocol details: shrunken log2 fold change of peptide-encoding DNA abundance (4.5 h post-induction vs induction); higher = less antimicrobial activity (less host growth inhibition)
- condition label: time post-induction: 4.5 h; library: site-saturation at positions 5, 18, 19, 20
API doc: respond with a numeric literal and nothing else, no unit.

Guide cases for shrunken log2 fold change, answers given:
item sequence	test system	shrunken log2 fold change
RRIRVRPPRLPRPRPRPLMFPRP	Escherichia coli TOP10	-0.449
RRIRTRPPRLPRPRPRPSTNPRP	Escherichia coli TOP10	-0.488
RRIRMRPPRLPRPRPRPEKPPRP	Escherichia coli TOP10	1.34
RRIRSRPPRLPRPRPRPAIIPRP	Escherichia coli TOP10	0.0969

Exercise: Please look up its shrunken log2 fold change: RRIRLRPPRLPRPRPRPIKNPRP
Key: -0.317

Exercise: Field request: shrunken log2 fold change | item: RRIRLRPPRLPRPRPRPEEWPRP
Key: 0.119

Exercise: Would you mind telling me what shrunken log2 fold change value was observed for RRIRFRPPRLPRPRPRPGIPPRP ?
Key: -0.183

----------
- System: Escherichia coli TOP10;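 note: peptides expressed intracellularly from a pBAD plasmid library in pooled LB shake-flask culture, induced with 0.3% L-arabinose, DNA abundance read by NGS, three biological replicates, DESeq2 with apeglm shrinkage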
- protocol details: shrunken log2 fold change of peptide-encoding DNA abundance (4.5 h post-induction vs induction); higher = less antimicrobial activity (less host growth inhibition)
- condition label: time post-induction: 4.5 h; library: site-saturation at positions 5, 18, 19, 20
Where shrunken log2 fold change equals or exceeds -0.04, the correct label is Condition met; where it does not, the label is Condition not met.

These recorded examples may help you get a feel for the data.
item sequence	test system	group
RRIRDRPPRLPRPRPRPLPMPRP	Escherichia coli TOP10	Condition met
RRIRERPPRLPRPRPRPEAFPRP	Escherichia coli TOP10	Condition met
RRIRFRPPRLPRPRPRPGCDPRP	Escherichia coli TOP10	Condition met
RRIRIRPPRLPRPRPRPSPFPRP	Escherichia coli TOP10	Condition not met
RRIRPRPPRLPRPRPRPYSSPRP	Escherichia coli TOP10	Condition not met

Exercise: Evaluate RRIRYRPPRLPRPRPRPKEDPRP : shrunken log2 fold change at minimum -0.04?
Key: Condition not met

Exercise: Check the entry RRIRVRPPRLPRPRPRPKDYPRP : does shrunken log2 fold change equal or exceed -0.04?
Key: Condition not met

Exercise: Kindly determine if shrunken log2 fold change recorded for RRIRIRPPRLPRPRPRPYETPRP is above or exactly -0.04.
Key: Condition met

Exercise: Please indicate if the recorded shrunken log2 fold change for RRIRIRPPRLPRPRPRPVMKPRP meets or exceeds -0.04.
Key: Condition met

Exercise: Kindly determine if shrunken log2 fold change recorded for RRIRDRPPRLPRPRPRPKWRPRP is above or exactly -0.04.
Key: Condition met

Exercise: Quick check, shrunken log2 fold change >= -0.04? RRIRMRPPRLPRPRPRPEPTPRP
Key: Condition met

Exercise: Assess whether reported shrunken log2 fold change for RRIRVRPPRLPRPRPRPKCNPRP sits at -0.04 or higher.
Key: Condition not met

Exercise: Kindly determine if shrunken log2 fold change recorded for RRIRSRPPRLPRPRPRPPLPPRP is above or exactly -0.04.
Key: Condition met

Exercise: Decide: is the reported value of shrunken log2 fold change for RRIRQRPPRLPRPRPRPGEGPRP equal to or greater than -0.04?
Key: Condition met

Exercise: Would you say RRIRVRPPRLPRPRPRPEPFPRP shows shrunken log2 fold change at minimum -0.04?
Key: Condition met

Exercise: Quick check, shrunken log2 fold change >= -0.04? RRIRKRPPRLPRPRPRPTMGPRP
Key: Condition met
